system: LXRa:RXRa (NR concentration 270 nM, RXRa partner concentration 90 nM); test: PBM binding z-score (relative to random genomic background probes); higher = stronger binding; sequences stand for … in GC…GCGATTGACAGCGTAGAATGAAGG
The entries below are paired with their reported PBM binding z-score.
// no unit string in output, number only

Monomer Sequence: CCTACTGGGCCAATCAGAGGTCATTGATCATATG
Test Target: LXRa:RXRa (NR concentration 270 nM, RXRa partner concentration 90 nM)
Measured Result: 4.24
--
Monomer Sequence: ATCTCTAGGTAAGACACAGTTCAGTGAAGAACGC
Test Target: LXRa:RXRa (NR concentration 270 nM, RXRa partner concentration 90 nM)
Measured Result: 1.1
--
Monomer Sequence: ATCTCTAGGTAACGTTCAGTGAAAGATCGATAGA
Test Target: LXRa:RXRa (NR concentration 270 nM, RXRa partner concentration 90 nM)
Measured Result: 0.51
--
Monomer Sequence: GGAACTAGGGCAAGTTGATAGCAGAGTTTGATGG
Test Target: LXRa:RXRa (NR concentration 270 nM, RXRa partner concentration 90 nM)
Measured Result: 0.0269

Problem: Jot down PBM binding z-score (LXRa:RXRa (NR concentration 270 nM, RXRa partner concentration 90 nM)) of TCTTGTAGATCAACAGGTTAAGAAAGCTGGCCAA .
Result: 0.634

Problem: Quote PBM binding z-score with test system LXRa:RXRa (NR concentration 270 nM, RXRa partner concentration 90 nM) for CAAACTAGGTCAAAGGTCAAATTCGAGCCAACCA
Result: 7.2
